- subject_of_test: ανβ6 (Homo sapiens, UniProt P06756+P18564)
- Sequence (P06756 31-1048): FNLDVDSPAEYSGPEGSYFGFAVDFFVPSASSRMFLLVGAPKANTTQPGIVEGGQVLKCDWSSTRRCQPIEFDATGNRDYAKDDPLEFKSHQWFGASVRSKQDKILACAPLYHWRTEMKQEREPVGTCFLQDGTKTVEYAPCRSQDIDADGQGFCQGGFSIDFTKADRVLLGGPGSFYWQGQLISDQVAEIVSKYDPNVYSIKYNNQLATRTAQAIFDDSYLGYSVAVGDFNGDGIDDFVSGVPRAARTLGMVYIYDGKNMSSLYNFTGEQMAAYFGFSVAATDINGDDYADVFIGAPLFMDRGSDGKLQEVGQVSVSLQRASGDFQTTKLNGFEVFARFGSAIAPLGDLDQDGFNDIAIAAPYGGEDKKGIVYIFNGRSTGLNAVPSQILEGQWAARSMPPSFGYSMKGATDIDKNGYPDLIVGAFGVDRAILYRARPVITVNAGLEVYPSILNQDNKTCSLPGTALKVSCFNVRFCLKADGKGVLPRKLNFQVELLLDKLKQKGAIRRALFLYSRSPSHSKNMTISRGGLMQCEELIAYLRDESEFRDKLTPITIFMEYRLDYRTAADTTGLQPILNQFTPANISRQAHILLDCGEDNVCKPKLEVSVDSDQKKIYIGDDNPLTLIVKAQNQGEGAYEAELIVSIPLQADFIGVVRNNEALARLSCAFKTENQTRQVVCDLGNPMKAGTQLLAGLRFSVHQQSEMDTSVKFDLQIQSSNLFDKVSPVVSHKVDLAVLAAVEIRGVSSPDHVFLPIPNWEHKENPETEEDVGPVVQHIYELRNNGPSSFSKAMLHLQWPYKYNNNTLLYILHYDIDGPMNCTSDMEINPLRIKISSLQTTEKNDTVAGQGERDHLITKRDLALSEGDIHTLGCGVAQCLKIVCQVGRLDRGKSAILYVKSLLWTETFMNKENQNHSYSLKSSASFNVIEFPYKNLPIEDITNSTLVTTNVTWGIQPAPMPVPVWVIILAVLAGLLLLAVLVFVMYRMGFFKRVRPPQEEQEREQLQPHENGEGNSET
- Sequence (P18564 22-788): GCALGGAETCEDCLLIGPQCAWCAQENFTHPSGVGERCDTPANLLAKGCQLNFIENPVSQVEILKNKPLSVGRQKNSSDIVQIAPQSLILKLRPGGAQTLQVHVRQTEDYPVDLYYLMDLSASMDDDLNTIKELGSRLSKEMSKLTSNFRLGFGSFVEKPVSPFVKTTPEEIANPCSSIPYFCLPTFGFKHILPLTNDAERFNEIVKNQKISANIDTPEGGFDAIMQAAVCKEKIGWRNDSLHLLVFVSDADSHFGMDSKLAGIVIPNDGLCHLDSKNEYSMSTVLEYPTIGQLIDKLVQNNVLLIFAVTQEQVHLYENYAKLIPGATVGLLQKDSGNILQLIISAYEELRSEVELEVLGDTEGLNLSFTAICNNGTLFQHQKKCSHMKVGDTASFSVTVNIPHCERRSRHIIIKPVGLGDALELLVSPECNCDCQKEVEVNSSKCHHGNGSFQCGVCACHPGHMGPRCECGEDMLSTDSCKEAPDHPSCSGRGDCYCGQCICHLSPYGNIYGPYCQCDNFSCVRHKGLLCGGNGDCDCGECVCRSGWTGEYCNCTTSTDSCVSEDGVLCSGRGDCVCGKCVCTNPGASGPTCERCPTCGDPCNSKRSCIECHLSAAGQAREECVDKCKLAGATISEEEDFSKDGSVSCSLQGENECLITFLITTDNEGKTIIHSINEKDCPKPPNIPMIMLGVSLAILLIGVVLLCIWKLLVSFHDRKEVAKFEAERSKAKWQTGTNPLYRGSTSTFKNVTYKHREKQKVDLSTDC
- assay_remarks: IC50 binding activity, αvβ6 integrin
pIC50: −log10 of the molar value.
In this section, each of the compounds is paired with its reported pIC50.
quantity_name: pIC50

- chemical_smiles: "[N-]=[N+]=NCCOCCOCCOCCOCCC(=O)NCCCOc1ccc([C@H](CC(=O)O)N2CCN(CCCc3ccc4c(n3)NCCC4)C2=O)cn1"
  result: 8.28
- chemical_smiles: "[N-]=[N+]=NCCOCCOCCOCCOc1ccc([C@H](CC(=O)O)N2CCN(CCCc3ccc4c(n3)NCCC4)C2=O)cc1F"
  result: 8.05
